# credit: ChEMBL document CHEMBL5058577

Test system: HEK-293T
Method notes: Multiplex assay against HEK293T
Assay type: toxicity, cell-based
Condition parameters: human, 12 h, 10 µM, compound concentration 10 uM, replicate 2
# Total Cell Count annotations

# Compound, Target or system, Total Cell Count
measured = [
    ("CC[C@@H](C)Nc1nc(C)nc2c(-c3ccc(OC)nc3C)c(C)nn12", "HEK-293T", 321),
    ("Cl.N=C(N)NC(=O)Cc1c(Cl)cccc1Cl [GUANFACINE HYDROCHLORIDE]", "HEK-293T", 365),
    ("Cc1noc(-c2ccc(-c3ccc(CC(=O)O)cc3)cc2)c1NC(=O)O[C@H](C)c1ccccc1Cl", "HEK-293T", 341),
    ("Cl.NCCc1ccc(O)c(O)c1 [DOPAMINE HYDROCHLORIDE]", "HEK-293T", 413),
    ("CC(C)COc1ccc(CNC(=O)N(Cc2ccc(F)cc2)C2CCN(C)CC2)cc1", "HEK-293T", 237),
    ("Cc1cccc(NC(=O)CN2CCC(c3ccccn3)CC2)c1.Cl.Cl", "HEK-293T", 273),
    ("COc1ccccc1N1CCN(C[C@@H](C(=O)NC(C)(C)C)c2ccccc2)CC1.Cl.Cl", "HEK-293T", 231),
]

----------
System: HEK-293T
Method notes: Multiplex assay against HEK293T
Format: toxicity, cell-based
Condition parameters: human, 12 h, 1 µM, compound concentration 1 uM, replicate 2

# Compound structure, Target or system, Measure unit, Population Mitotic Cells (%)
records = [
    ("N#Cc1cc(F)cc(-c2nc(-c3ccc(F)cn3)no2)c1", "HEK-293T", "%", 36),
    ("N#Cc1c(Oc2cccc(OS(=O)(=O)CCCC(F)(F)F)c2)cccc1C(F)(F)F", "HEK-293T", "%", 36),
    ("CC(C)c1noc(N2CCC(COc3ccc(-c4ccc(S(C)(=O)=O)cc4)nc3)CC2)n1", "HEK-293T", "%", 74),
    ("NCCc1cn(S(=O)(=O)c2c(Cl)nc3sccn23)c2ccccc12.O=C(O)C(=O)O", "HEK-293T", "%", 47),
    ("Cc1onc(-c2ccccc2Cl)c1C(=O)N(C)c1ccc(Cl)cc1", "HEK-293T", "%", 62),
    ("COc1ccccc1N1CCN(C[C@@H](C(=O)NC(C)(C)C)c2ccccc2)CC1.Cl.Cl", "HEK-293T", "%", 57),
    ("CCc1cc2cc(NS(=O)(=O)c3ccc(C#N)cc3)ccc2n(CC)c1=O", "HEK-293T", "%", 59),
    ("CC[C@@H](C)Nc1nc(C)nc2c(-c3ccc(OC)nc3C)c(C)nn12", "HEK-293T", "%", 52),
    ("CCCCC1=NC2(CCCC2)C(=O)N1Cc1ccc(-c2ccccc2-c2nnn[nH]2)cc1", "HEK-293T", "%", 71),
]

----------
Tested on: Fibroblast
Method notes: Multiplex assay against human fibroblast
Type: toxicity, cell-based
Condition parameters: 24 h, 1 µM, compound concentration 1 uM, replicate 1
Measured attribute: Population Tubulin-Different-Phenotype (%)

# Molecule, Measure unit, Numeric readout
measured = [
    ("Cc1onc(-c2ccccc2Cl)c1C(=O)N(C)c1ccc(Cl)cc1", "%", 16),
    ("CCCCC(=O)N(Cc1ccc(-c2ccccc2-c2nnn[nH]2)cc1)[C@H](C(=O)O)C(C)C", "%", 17),
    ("C[C@H](N)COC(=O)[C@@H](CCCCN)NC(=O)Cc1c(-c2ccc3ccccc3c2)[nH]c2c1ccc1ccccc12", "%", 30),
    ("CN1CCN(c2cc(-c3ccccc3)nc(N)n2)CC1", "%", 19),
    ("Cl.N=C(N)NC(=O)Cc1c(Cl)cccc1Cl [GUANFACINE HYDROCHLORIDE]", "%", 26),
    ("CCCOc1ccc2[nH]cc(C3=CCNCC3)c2n1.Cl", "%", 20),
    ("CCCCC1=NC2(CCCC2)C(=O)N1Cc1ccc(-c2ccccc2-c2nnn[nH]2)cc1", "%", 22),
    ("O=C(CCCc1ccccc1)Nc1nc2ccccc2c(=O)s1", "%", 20),
    ("NCCc1cn(S(=O)(=O)c2c(Cl)nc3sccn23)c2ccccc12.O=C(O)C(=O)O", "%", 42),
    ("CC(/C=C1\\SC(=S)N(CCCC(=O)Nc2ccc(C(=O)O)c(O)c2)C1=O)=C\\c1ccccc1", "%", 25),
    ("COc1ccccc1N1CCN(C[C@@H](C(=O)NC(C)(C)C)c2ccccc2)CC1.Cl.Cl", "%", 32),
    ("Cc1cccc(NC(=O)CN2CCC(c3ccccn3)CC2)c1.Cl.Cl", "%", 25),
    ("CN[C@@H](C)C(=O)N[C@H](C(=O)N1CCC[C@H]1C(=O)Nc1snnc1-c1ccccc1)C1CCCCC1", "%", 30),
    ("COC[C@@H](c1ccc(C(F)(F)F)cc1)N1CCN(C2(C)CCN(C(=O)c3c(C)ncnc3C)CC2)C[C@@H]1C.O=C(O)/C=C\\C(=O)O [VICRIVIROC MALEATE]", "%", 18),
    ("N#Cc1c(Oc2cccc(OS(=O)(=O)CCCC(F)(F)F)c2)cccc1C(F)(F)F", "%", 45),
    ("Cl.NCCc1ccc(O)c(O)c1 [DOPAMINE HYDROCHLORIDE]", "%", 31),
]

----------
Test system: U2OS
Method notes: Multiplex assay against U2OS
Format: toxicity, cell-based
Condition parameters: human, 12 h, 10 µM, compound concentration 10 uM, replicate 1

# Molecule, Population Fragmented Nuclei (%)
records = [
    ("COc1ccccc1N1CCN(C[C@@H](C(=O)NC(C)(C)C)c2ccccc2)CC1.Cl.Cl", 35),
    ("Cc1c(CC(=O)O)c2cccnc2n1Cc1ccc(S(C)(=O)=O)cc1C(F)(F)F", 27),
    ("O=C1[C@H](Cc2ccc(O)cc2)N2C(=O)CCN(C(=O)NCc3ccccc3)[C@H]2CN1Cc1cccc2ccccc12", 32),
    ("Cl.N=C(N)NC(=O)Cc1c(Cl)cccc1Cl [GUANFACINE HYDROCHLORIDE]", 27),
    ("CC(C)c1noc(N2CCC(COc3ccc(-c4ccc(S(C)(=O)=O)cc4)nc3)CC2)n1", 31),
    ("CCCCC1=NC2(CCCC2)C(=O)N1Cc1ccc(-c2ccccc2-c2nnn[nH]2)cc1", 22),
    ("Br.CS(=O)(=O)Nc1c(O)ccc2c1CCCC2C1=NCCN1 (centres undefined)", 36),
    ("COc1cccc2c1c(NS(=O)(=O)c1ccc(Cl)s1)nn2Cc1cccc(CNC(=O)C(C)(C)O)c1", 26),
    ("CCCOc1ccc2[nH]cc(C3=CCNCC3)c2n1.Cl", 24),
]

----------
Test system: U2OS
Method notes: Multiplex assay against U2OS
Format: toxicity, cell-based
Condition parameters: human, 24 h, 10 µM, compound concentration 10 uM, replicate 2

# Compound, Population Pyknosed Nuclei (%)
rows = [
    ("Cc1onc(-c2ccccc2Cl)c1C(=O)N(C)c1ccc(Cl)cc1", 13),
    ("Br.CS(=O)(=O)Nc1c(O)ccc2c1CCCC2C1=NCCN1 (centres undefined)", 2),
    ("CCc1cc2cc(NS(=O)(=O)c3ccc(C#N)cc3)ccc2n(CC)c1=O", 6),
    ("CN[C@@H](C)C(=O)N[C@H](C(=O)N1CCC[C@H]1C(=O)Nc1snnc1-c1ccccc1)C1CCCCC1", 38),
    ("CC(C)c1noc(N2CCC(COc3ccc(-c4ccc(S(C)(=O)=O)cc4)nc3)CC2)n1", 8),
    ("CC(=O)Nc1cccc2c1c(Sc1ccc(Cl)cc1)c(C)n2CC(=O)O", 8),
    ("NCCc1cn(S(=O)(=O)c2c(Cl)nc3sccn23)c2ccccc12.O=C(O)C(=O)O", 33),
    ("Cc1cccc(NC(=O)CN2CCC(c3ccccn3)CC2)c1.Cl.Cl", 6),
    ("CC(C)COc1ccc(CNC(=O)N(Cc2ccc(F)cc2)C2CCN(C)CC2)cc1", 33),
]

----------
Test system: HEK-293T
Method notes: Multiplex assay against HEK293T
Assay type: toxicity, cell-based
Condition parameters: human, 24 h, 10 µM, compound concentration 10 uM, replicate 1
Listing: Population Hoechst High Intensity Objects (%) of selected compounds
Measured attribute: Population Hoechst High Intensity Objects (%)

# Compound, Numeric readout
rows = [
    ("Cc1onc(-c2ccccc2Cl)c1C(=O)N(C)c1ccc(Cl)cc1", 5),
    ("CC(C)(C)c1cc(NC(=O)Nc2ccc(-c3cn4c(n3)sc3cc(OCCN5CCOCC5)ccc34)cc2)no1", 16),
    ("CC(=O)Nc1cccc2c1c(Sc1ccc(Cl)cc1)c(C)n2CC(=O)O", 4),
    ("CN1CCN(c2cc(-c3ccccc3)nc(N)n2)CC1", 6),
    ("CCCCCC(O)/C=C/[C@H]1C(=O)CC(O)C1C/C=C\\CCCC(=O)O (stereo not given in full)", 4),
]
